- assayed-target: human LAP-TGFβ1 expressed on P3U1 cells (human, UniProt P01137 30-390)
- Sequence (P01137 30-390): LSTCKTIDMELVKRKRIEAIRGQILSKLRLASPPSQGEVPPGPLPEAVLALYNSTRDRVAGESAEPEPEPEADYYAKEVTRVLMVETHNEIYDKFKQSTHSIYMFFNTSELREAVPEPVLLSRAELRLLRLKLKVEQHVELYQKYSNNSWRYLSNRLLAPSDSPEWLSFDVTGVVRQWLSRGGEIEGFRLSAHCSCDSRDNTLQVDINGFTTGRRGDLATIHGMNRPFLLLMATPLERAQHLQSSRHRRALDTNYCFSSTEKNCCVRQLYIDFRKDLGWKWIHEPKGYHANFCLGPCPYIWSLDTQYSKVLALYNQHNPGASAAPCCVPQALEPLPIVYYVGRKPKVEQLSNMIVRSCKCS
- protocol-description: cell-based or functional assay
Kindly supply the reported Average EC50 values for the records listed here.
Numbers only, in µg/mL.

Give Average EC50 for each of the items listed below.
1. 11BLM (antibody, human IgG1, kappa, L234A L235A, V domains shown, IgG1 L234A L235A D265S/kappa; also called 74BLH; 47BMD) VH: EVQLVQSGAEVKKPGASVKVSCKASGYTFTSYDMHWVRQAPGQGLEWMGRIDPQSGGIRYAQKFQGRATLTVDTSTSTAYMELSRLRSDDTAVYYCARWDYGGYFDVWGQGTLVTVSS VL: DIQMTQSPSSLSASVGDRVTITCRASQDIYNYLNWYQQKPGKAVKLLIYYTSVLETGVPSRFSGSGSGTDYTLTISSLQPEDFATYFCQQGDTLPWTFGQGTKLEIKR
2. parental 20E6 humanized antibody (antibody, IgG1, V domains shown) VH: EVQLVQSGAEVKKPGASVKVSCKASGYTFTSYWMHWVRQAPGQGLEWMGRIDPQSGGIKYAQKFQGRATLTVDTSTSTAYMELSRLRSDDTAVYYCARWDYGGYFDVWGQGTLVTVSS VL: DIQMTQSPSSLSASVGDRVTITCRASQDITNYLNWYQQKPGKAVKLLIYYTSRLHSGVPSRFSGSGSGTDYTLTISSLQPEDFATYFCQQGDTLPWTFGQGTKLEIK
3. 09BLM (antibody, human IgG1, kappa, L234A L235A, V domains shown) VH: EVQLVQSGAEVKKPGASVKVSCKASGYTFTSYDMHWVRQAPGQGLEWMGRIDPISGGIKYAQKFQGRATLTVDTSTSTAYMELSRLRSDDTAVYYCARWDYGGYFDVWGQGTLVTVSS VL: DIQMTQSPSSLSASVGDRVTITCRASQDIFNYLNWYQQKPGKAVKLLIYYTSHLETGVPSRFSGSGSGTDYTLTISSLQPEDFATYFCQQGDTLPWTFGQGTKLEIKR

1: 0.083; 2: 5.64; 3: 0.08
